# assayDetails: osmotic lysis modulators in infected erythrocytes, primary screen, PSAC antagonist project, cell-based, P. falciparum Indochina, OD700, 3 h (AID 1156)
# measurementSetup: higher = more signal, called active from +8 up or from −8 down
quantityMeasured: z-score
Numbers only.

These solved cases illustrate the format of a correct answer.
[
  {
    "molecule": "CC(C)=NO[C@H](C)c1cn([C@@H]2COC[C@H]2O)nn1",
    "z-score": 0.627
  },
  {
    "molecule": "CC(C)=NOC(C)CN1CCCCc2nc(C)c(C)cc21 (stereo not drawn)",
    "z-score": -0.565
  },
  {
    "molecule": "COC(=O)[C@H](C)NC(=O)CCC1CC(OC(=O)NCCc2ccc(F)cc2)CC2(CCCC(COC(=O)NCc3ccccc3)O2)O1 (stereo partly drawn)",
    "z-score": -0.384
  },
  {
    "molecule": "CCOC(=O)[C@H](Cc1ccccc1)NC(=O)CCC1CC(OC(=O)NCc2cccc3ccccc23)CC2(CCCC(COC(=O)NCCc3ccc(Cl)cc3)O2)O1 (stereo partly drawn)",
    "z-score": -0.552
  },
  {
    "molecule": "C[C@@H]1CC[C@H]2C(=O)N3[C@@H](CC[C@@H](C)[C@@H]3c3ccc(Br)cc3)C(=O)N2[C@H]1c1ccc(Br)cc1",
    "z-score": 0.121
  }
]

Batch request: z-score for each of the following molecules.
1. CC(C)CON=C1C[C@@H](O)[C@@H](O)[C@@H]2[C@@H]3C(=O)N(c4ccc(F)cc4F)C(=O)[C@@H]3CC[C@@H]12
2. C#CCCCON=C1C[C@@H](O)[C@@H](O)[C@@H]2[C@@H]3C(=O)N(C[C@@H]4CCCO4)C(=O)[C@@H]3CC[C@H]12
3. CC(=O)OC[C@H]1O[C@H](CC=NOC[C@@H](O)[C@H]2O[C@@H]3OC(C)(C)O[C@@H]3[C@H]2O)C=C[C@@H]1OC(C)=O

Found:
1: -0.116; 2: -0.0365; 3: 0.0662

====

# assayDetails: basal MM1S mitochondrial membrane potential changes, profiling panel, cell-based, JC-1 fluorescence, 24 h, 100 nL compound (AID 1170); also: test concentration not given here
# measurementSetup: higher = more signal
Record form. Attribute: z-score. Fill in for each entry.
Answers are plain numbers.

Batch request: z-score for each of the following compounds.
1. C[C@H]1CC[C@H]2C(=O)OC(COc3ccc(C(C)(C)C)cc3)CN2[C@@H]1c1ccc(Br)cc1 (stereo not given in full)
2. COC(=O)[C@H](C)NC(=O)CCC1CC(OC(=O)NCCc2ccc(F)cc2)CC2(CCCC(COC(=O)NCc3ccccc3)O2)O1 (stereo not given in full)
3. CCOC(=O)NN=C1C[C@@H](O)[C@@H](O)[C@@H]2[C@@H]3C(=O)N(CC)C(=O)[C@@H]3CC[C@H]12

Found:
1. 0.855
2. -0.579
3. -0.809

Batch request: z-score for each of the following compounds.
1. COc1ccc(O[C@H]2C=C[C@@H](c3ccccc3)O[C@@H]2CON=C2c3cc(OC)ccc3O[C@H](c3cccc(OC)c3)[C@H]2O)cc1
2. CC(=O)OC[C@H]1O[C@H](CC=NOC[C@@H](O)COCc2ccco2)C=C[C@@H]1OC(C)=O
3. CC(C)(C)N1C(=O)[C@H]2[C@H]3[C@H](O)[C@H](O)CC(=NNC(=O)OCc4ccccc4)[C@@H]3CC[C@H]2C1=O

Found:
[-0.0381, -1.01, -0.368]

Batch request: z-score for each of the following compounds.
1. CCOC(=O)CCN1C(=O)[C@H]2[C@H]3[C@H](O)[C@H](O)CC(=NNC(=O)OCC)[C@H]3CC[C@H]2C1=O
2. O=C1C[C@@H](O)[C@@H](O)[C@@H]2[C@@H]3C(=O)N(Cc4ccccc4)C(=O)[C@@H]3CC[C@H]12
3. CC(C)=NOC(C)CN1CCCCc2nc(C)c(C)cc21 (stereo not given)

Found:
0.0724
-0.281
0.354

Lookup: Fill in the blank: the reported z-score of COC(=O)CC=C[C@@H](C)[C@@H](C=NOC[C@@H](O)COCc1ccco1)NS(=O)(=O)c1ccc(C)cc1 is ____.
Found: -0.436
